Hello, the source for this data is ChEMBL document CHEMBL1201862, in case you need it.

- Test system: SF-539
- PROTOCOL DESCRIPTION: NCI tumour cell line growth inhibition, 48 h
The source made the active and inactive calls. Rule as the data show it: active = GI50 up to about 1.1 µM and inactive = higher.
MEASUREMENT LABEL: GI50

Task item: Form field: GI50 recorded for C[C@]1(CO)CCC[C@@]2(C)C1CC[C@H]1CC3C[C@]12CC[C@]3(C)O (stereo partly specified) with SF-539 (enter value)
Reply: 57.7 µM (inactive)

Task item: Form field: GI50 recorded for C=C1C2Oc3ccccc3C1N(c1ccccc1)O2 (stereo unspecified) with SF-539 (enter value)
Reply: 23.8 µM (inactive)

Task item: Form field: GI50 recorded for COc1cc(OC)c(NC2=NCCO2)cc1Cl with SF-539 (enter value)
Reply: 25.5 µM (inactive)

Task item: Form field: GI50 recorded for C=CCC1(OCc2ccccc2)C(=O)C(=O)OC1C1COC(C)(C)O1 (stereo unspecified) with SF-539 (enter value)
Reply: > 100 µM (inactive)

Task item: Form field: GI50 recorded for C=C1CC(Cn2cc(C)c(=O)[nH]c2=O)(c2ccc(Cl)cc2)OC1=O (stereo unspecified) with SF-539 (enter value)
Reply: 10.9 µM (inactive)

Task item: Form field: GI50 recorded for O=C1C=C(C2=CC(=O)C(=O)c3ccccc32)c2ccccc2C1=O with SF-539 (enter value)
Reply: 19.4 µM (inactive)

====

- Test system: UACC-62
- PROTOCOL DESCRIPTION: NCI tumour cell line growth inhibition, 48 h
Activity calls are given as the source filed them. Rule as the data show it: active = GI50 up to about 1.1 µM and inactive = higher.
// one of active, inactive, no free text

Task item: Test call, this molecule: NC1=NC2=C(CCCC2)C(c2cccs2)S1 (configuration not stated)
Reply: inactive

Task item: Test call, this molecule: CC1=C(c2cc(C(=O)Nc3ccc(Cl)cc3)nc(S)n2)Sc2ccccc2N1
Reply: inactive

Task item: Test call, this molecule: CN(C)c1ccc(C(N)=O)cn1
Reply: inactive

Task item: Test call, this molecule: CCOC(=O)C(=Cc1ccccc1Br)C(=O)OCC
Reply: inactive

Task item: Test call, this molecule: Cn1c(/C=C/CO)c(CO)c2c1C(=O)C=C(N1CC1)C2=O [APAZIQUONE]
Reply: active

Task item: Test call, this molecule: CC(=O)c1ccc2c(c1)CC1(C2)Cc2cc3c(cc2C1)C(=O)CC3 (configuration not stated)
Reply: inactive

Task item: Test call, this molecule: NC(Cc1ncccn1)C(=O)O (configuration not stated)
Reply: inactive

Task item: Test call, this molecule: CCOC(=O)c1cnc2c(ccc3ncccc32)c1OCC
Reply: inactive

Task item: Test call, this molecule: CC1(C)C(O)c2ccccc2OC1N1CCN(C2Oc3ccccc3C(O)C2(C)C)CC1 (configuration not stated)
Reply: inactive

Task item: Test call, this molecule: CCCCCCCCCCNC(=S)OC
Reply: inactive

Task item: Test call, this molecule: COc1ccc(NC(=S)N/N=C2\C(=O)Nc3ccccc32)cc1
Reply: inactive

Task item: Test call, this molecule: N[C@@H](Cc1ccccc1)C(=O)N1CCC[C@@H]1P(=O)(Oc1ccccc1)Oc1ccccc1
Reply: inactive

====

- System: KM12
- PROTOCOL DESCRIPTION: NCI tumour cell line growth inhibition, 48 h
Activity calls are given as the source filed them. Rule as the data show it: active = GI50 up to about 1.1 µM and inactive = higher.
// one of YES = active, NO = inactive, no free text

Task item: Test call, this compound: N#CC(/N=N/c1ccc(Cl)cc1)c1nc2ccccc2o1 (centres undefined)
Reply: NO

Task item: Test call, this compound: Cc1cc(C)c(C2[C@H]3C(=O)N(c4ccc(Cc5ccc(N6C(=O)[C@@H]7ON(c8ccccc8)C(c8c(C)cc(C)cc8C)[C@@H]7C6=O)cc5)cc4)C(=O)[C@H]3ON2c2ccccc2)c(C)c1 (some centres undefined)
Reply: NO

Task item: Test call, this compound: COc1ccc(-n2nnc3c(C#N)c(C)c(-c4ccccc4)n3c2=O)cc1
Reply: NO

Task item: Test call, this compound: COc1ccc(/C=C2\C(=O)N(NC(C)=O)c3ccccc32)cc1
Reply: NO

Task item: Test call, this compound: CCOC(=O)C1C(c2ccc(OC)cc2)c2c(nn(-c3ccccc3)c2O)CC1(C)O (centres undefined)
Reply: NO

Task item: Test call, this compound: c1ccc2c(c1)[C@@H]1O[C@@H]1[C@@]13O[C@@]21[C@H]1O[C@H]1c1ccccc13
Reply: NO

Task item: Test call, this compound: COc1cc(NS(C)(=O)=O)ccc1NCc1c[nH]c2ccc3nc(C)ccc3c12
Reply: NO

Task item: Test call, this compound: C[C@H]1C(=O)C2=C[C@H]1CCC(=O)[C@]1(C)CCCC(C)(C)[C@H]1C[C@H]2O
Reply: NO

Task item: Test call, this compound: CCCCCC1=C/C(=C\c2[nH]c(-c3ccc[nH]3)cc2OC)N=C1C
Reply: YES

Task item: Test call, this compound: C=C1C(=O)O[C@H]2C3C(=C(C)CC[C@@H]12)C(=O)[C@@H]1OC31C (some centres undefined)
Reply: NO

Task item: Test call, this compound: CCCCCCCCCC[C@@H](O)[C@H]1CC[C@H]([C@H]2CC[C@H]([C@H](O)CCCCCCCCCC[C@@H]3CC(CC(C)=O)C(=O)O3)O2)O1 (some centres undefined)
Reply: NO

Task item: Test call, this compound: N#CC(c1ccccc1)(c1ccccc1)[C@@H](c1ccccc1)[C@H](Cc1ccccc1)NS(=O)(=O)c1ccccc1
Reply: NO

Task item: Test call, this compound: CC1(C)CCN2C(=O)C34CCCC3CC21S4 (centres undefined)
Reply: NO

Task item: Test call, this compound: NC1=NCCC1(c1ccccc1)c1ccccn1 (centres undefined)
Reply: NO

Task item: Test call, this compound: O=C1C(Cl)=C(N[C@@H](Cc2ccccc2)C(=O)OCc2ccccc2)C(=O)c2c(O)ccc(O)c21
Reply: NO

Task item: Test call, this compound: COC(=O)[C@H](Cc1c[nH]c2ccccc12)NC(=O)c1ccc(CNC(=O)/C(C)=C/c2ccccc2)cc1
Reply: NO

Task item: Test call, this compound: CCOC(=O)C(=[N+]=[N-])C(=O)CN1C(=O)C2CC(C)=C(C)CC2C1O (centres undefined)
Reply: NO

Task item: Test call, this compound: CC1CCN(CC(=O)N2c3ccccc3Sc3cc4ccccc4cc32)CC1
Reply: NO

Task item: Test call, this compound: CNC(=S)N/N=C/c1ccc([N+](=O)[O-])s1
Reply: NO
